Tested on: HCC 2998
ASSAY_EXPLANATION: NCI tumour cell line growth inhibition, 48 h
Active and inactive are the calls of the source. Rule as the data show it: active = GI50 up to about 1.1 µM and inactive = higher.
READOUT_NAME: GI50

{"COMPOUND": "CCC(=O)O[C@H]1CC[C@H]2[C@@H]3CCC4=C/C(=N/NC(=O)c5cccc6c(=O)c7ccccc7[nH]c56)CC[C@]4(C)[C@H]3CC[C@]12C", "SYSTEM": "HCC 2998", "ENDPOINT_RESULT": "> 25 µM (inactive)"}
{"COMPOUND": "CC1C2C=CC1C(c1c3ccc(=O)c(O)c-3oc3c(O)c(O)ccc13)C2C(=O)O (stereo unspecified)", "SYSTEM": "HCC 2998", "ENDPOINT_RESULT": "> 100 µM (inactive)"}
{"COMPOUND": "Cc1ccc(N2C(=O)/C(=C/c3ccc(N(CCC#N)CCC#N)cc3C)N=C2c2cc([N+](=O)[O-])ccc2Cl)cc1", "SYSTEM": "HCC 2998", "ENDPOINT_RESULT": "> 100 µM (inactive)"}
{"COMPOUND": "Cc1cc(S(=O)(=O)Nc2nc3cscc3c(=O)n2N)c(S)cc1Cl", "SYSTEM": "HCC 2998", "ENDPOINT_RESULT": "47.5 µM (inactive)"}
{"COMPOUND": "CC(C(=O)n1nnc2ccccc21)N(c1ccccc1)c1ccccc1 (stereo unspecified)", "SYSTEM": "HCC 2998", "ENDPOINT_RESULT": "> 100 µM (inactive)"}
{"COMPOUND": "C=C(C)C(=O)O[C@H]1C[C@@]23O[C@@H]2CCC(=C[C@H]2OC(=O)C(=C)[C@H]12)COC3O (stereo partly specified)", "SYSTEM": "HCC 2998", "ENDPOINT_RESULT": "69.3 µM (inactive)"}
{"COMPOUND": "CSc1nc2c(N)ncnc2n1C", "SYSTEM": "HCC 2998", "ENDPOINT_RESULT": "> 100 µM (inactive)"}
{"COMPOUND": "O=C(/C=C/c1ccccc1)c1cc(C(=O)/C=C/c2ccccc2)c(O)cc1O", "SYSTEM": "HCC 2998", "ENDPOINT_RESULT": "88.3 µM (inactive)"}
{"COMPOUND": "C=C1C(=O)OC2/C=C(/C)C(OC(C)=O)C/C=C(\\C)C(OC(=O)C3(C)OC3C)C(O)C12 (stereo unspecified)", "SYSTEM": "HCC 2998", "ENDPOINT_RESULT": "> 100 µM (inactive)"}
{"COMPOUND": "CN(C)CN1C(=O)S/C(=C2\\C(=O)N(CN(C)C)c3ccccc32)C1=O", "SYSTEM": "HCC 2998", "ENDPOINT_RESULT": "26.8 µM (inactive)"}
{"COMPOUND": "Oc1ccc(/C=N/CC2CCCN3CCCCC23)cc1 (stereo unspecified)", "SYSTEM": "HCC 2998", "ENDPOINT_RESULT": "20 µM (inactive)"}
{"COMPOUND": "O=C1CCC[C@@H]2NC[C@@H](c3ccc4c(c3)OCO4)[C@H]12", "SYSTEM": "HCC 2998", "ENDPOINT_RESULT": "> 25 µM (inactive)"}
{"COMPOUND": "CC(N)C(C)Cc1ccccc1 (stereo unspecified)", "SYSTEM": "HCC 2998", "ENDPOINT_RESULT": "> 100 µM (inactive)"}
{"COMPOUND": "O=C1SC(c2ccc(Cl)cc2)(c2ccc(Cl)cc2)c2ccccc21", "SYSTEM": "HCC 2998", "ENDPOINT_RESULT": "38.3 µM (inactive)"}
{"COMPOUND": "COc1ccc2nc3c(c(NCCCN(C)C)c2c1)CCCC3", "SYSTEM": "HCC 2998", "ENDPOINT_RESULT": "8.81 µM (inactive)"}
{"COMPOUND": "COc1ccc(SS(=O)(=O)c2ccc(OC)cc2)cc1", "SYSTEM": "HCC 2998", "ENDPOINT_RESULT": "13.6 µM (inactive)"}
{"COMPOUND": "Cc1cc2c(c(C(N)=O)c1C)-c1cccc(Cl)c1C2=O", "SYSTEM": "HCC 2998", "ENDPOINT_RESULT": "> 100 µM (inactive)"}
{"COMPOUND": "CC(=O)O[C@H]1CCC2[C@@H]3CCC4NC(=O)C(C#N)C[C@]4(C)C3CC[C@@]21C (stereo partly specified)", "SYSTEM": "HCC 2998", "ENDPOINT_RESULT": "> 10 µM (inactive)"}
{"COMPOUND": "CCOC(=O)Cc1nc2ccccc2s1", "SYSTEM": "HCC 2998", "ENDPOINT_RESULT": "88.1 µM (inactive)"}
{"COMPOUND": "CC(=O)NNc1nc(C)c(C(=O)/C=C/c2ccc(Cl)c(Cl)c2)s1", "SYSTEM": "HCC 2998", "ENDPOINT_RESULT": "> 100 µM (inactive)"}
{"COMPOUND": "CC(C)(C)[Si](OC1CCOC1=O)(c1ccccc1)c1ccccc1 (stereo unspecified)", "SYSTEM": "HCC 2998", "ENDPOINT_RESULT": "18.9 µM (inactive)"}

====

System: Malme-3M
ASSAY_EXPLANATION: NCI tumour cell line growth inhibition, 48 h
Activity calls are given as the source filed them. Rule as the data show it: active = GI50 up to about 1.1 µM and inactive = higher.
Outcomes: Yes for active, No for inactive

{"COMPOUND": "CC1=C(C(=O)Nc2ccc([N+](=O)[O-])cc2)C(c2ccc3c(c2)OCO3)C(C(=O)Nc2ccc([N+](=O)[O-])cc2)=C(C)N1", "GROUP": "No"}
{"COMPOUND": "COc1ccc(OCC(=O)O)c2c1CCC(C)C2=O (stereo unspecified)", "GROUP": "No"}
{"COMPOUND": "O=C1c2ccccc2C(=O)N1n1c(Cc2ccc([N+](=O)[O-])cc2)n[nH]c1=O", "GROUP": "No"}
{"COMPOUND": "N#Cc1ccc(/N=C(/NCC(=O)O)Nc2ccc3ccccc3c2)cc1", "GROUP": "No"}
{"COMPOUND": "CCCCc1ccc(Nc2nc(Cl)c3ncn(C4CC(Oc5ccc(C)cc5)C(COc5ccc(C)cc5)O4)c3n2)cc1 (stereo unspecified)", "GROUP": "No"}
{"COMPOUND": "CC(=O)O[C@H]1CCC2[C@@H]3CCC4NC(=O)C(C#N)C[C@]4(C)C3CC[C@@]21C (stereo partly specified)", "GROUP": "No"}
{"COMPOUND": "COc1cc2c(c(OC)c1OC)-c1ccc(SC)c(=O)cc1C(NC=O)CC2 (stereo unspecified)", "GROUP": "Yes"}
{"COMPOUND": "O=c1[nH]cc(C(F)(C(F)(F)F)C(F)(F)F)c(=O)[nH]1", "GROUP": "No"}
{"COMPOUND": "CN(C)c1cccc2c(S(=O)(=O)NCCN)cccc12", "GROUP": "No"}
{"COMPOUND": "CCOc1ccc(NCC2CC/C(=C\\C=C\\c3ccccc3)C2=O)cc1 (stereo unspecified)", "GROUP": "No"}
{"COMPOUND": "Nc1nc(=O)n([C@@H]2CC[C@H](CO)O2)cc1F", "GROUP": "No"}
{"COMPOUND": "Cc1csc2c1C(=O)c1ccsc1C2=O", "GROUP": "Yes"}
{"COMPOUND": "O=C1NC(=S)NC(=O)C1=C/C=C/c1ccc([N+](=O)[O-])cc1", "GROUP": "No"}
{"COMPOUND": "O=[As](O)(O)c1ccc(Cc2ccc([As](=O)(O)O)cc2)cc1", "GROUP": "No"}
{"COMPOUND": "O=C(/C=C/c1ccccc1)c1cc(C(=O)/C=C/c2ccccc2)c(O)cc1O", "GROUP": "No"}
{"COMPOUND": "COc1c(Cl)cc(Cl)cc1S(=O)O", "GROUP": "No"}
{"COMPOUND": "O=C1c2ccccc2C(=O)N1CCCC(=O)n1cc(F)c(=O)[nH]c1=O", "GROUP": "No"}
{"COMPOUND": "COCOC1/C=C/CCCC#C[C@H](C)C(=O)CC1 (stereo partly specified)", "GROUP": "No"}
{"COMPOUND": "CCOP(=Nc1ccc(N(C)C)cc1)(OCC)OCC", "GROUP": "No"}
{"COMPOUND": "CC(=O)OCCOCn1c2c(c(=O)[nH]c1=O)CCC2", "GROUP": "No"}
{"COMPOUND": "CC1(C)CCCCC1/C=C/C(CC(O)(C(F)(F)F)C(F)(F)F)=N\\Nc1ccc([N+](=O)[O-])cc1[N+](=O)[O-] (stereo unspecified)", "GROUP": "No"}
